// cross-study collection: Kd for Aurora kinase B (Homo sapiens, UniProt Q96GD4)
METRIC_NAME: Kd (µM)

smiles_structure=COc1cc(CCc2cc(NC(=O)c3ccc(N4C[C@@H](C)N[C@@H](C)C4)cc3)n[nH]2)cc(OC)c1 number=1.67

P = Cc1cc(Nc2nc(Sc3ccc(NC(=O)CN4C[C@H](OC(C)(C)C)C[C@H]4CO)cc3)nn3cccc23)n[nH]1
Q = Cc1cc(Nc2nc(Sc3ccc(NC(=O)CN4C[C@H](Oc5cc(F)cc(F)c5)[C@@H](O)C4)cc3)nn3cccc23)n[nH]1
R = Cc1cc(Nc2nc(Sc3ccc(NC(=O)CN4CC[C@@H](C(=O)N5CCCCC5)C4)cc3)nn3cccc23)n[nH]1
Input: Order the records, beginning with the lowest Kd and ending with the highest. Please respond with the labels ordered as the question requires.
Output: R, P, Q
(R: 0.0029 µM, P: 0.008 µM, Q: 0.021 µM)
